Origin of measurements: PubChem BioAssay

system: Plasmodium falciparum Sir2 (PF13_0152, Sir2A); experiment: Plasmodium falciparum Sir2A binding compounds – biochemical, small-molecule microarray, 635 nm fluorescence, primary screen (AID 1098); settings: fluorescence 635 nm, higher = more signal;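 also: score merges spot fluorescence intensity with its signal-to-noise ratio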
Please provide measured composite z-score for the entries that follow.
Provide a numeric answer; units are not to be included.

Form field composite z-score for item CCCCC(CC)C(O)C1C=CC2C(=O)N(c3ccccc3)C(=O)C2N1Nc1ccc(C#N)cc1 (stereo unspecified) on Plasmodium falciparum Sir2 (PF13_0152, Sir2A): 0.976

Form field composite z-score for item COc1ccc([Si](C)(C)[C@@H]2[C@@H](CCO)O[C@]3(C(=O)N(Cc4cccc(NC(=O)[C@H](C)O)c4)c4ccccc43)[C@H]2C)cc1 on Plasmodium falciparum Sir2 (PF13_0152, Sir2A): 1.42

Form field composite z-score for item COCCOC(=O)N1C(=O)[C@@]2(c3cc(C#CC4=CCCCC4)ccc31)[C@H](c1ccccc1OCCO)N1[C@H](c3ccccc3)[C@H](c3ccccc3)OC(=O)[C@H]1[C@@H]2C(=O)NC[C@H](O)c1ccccc1 on Plasmodium falciparum Sir2 (PF13_0152, Sir2A): 1.53

Form field composite z-score for item CC(C)C[C@@H]1NC(=O)[C@@H]2C[C@H](C(=O)NCCCCCCN)[C@H](c3cccc(OCCO)c3)N2C1=O on Plasmodium falciparum Sir2 (PF13_0152, Sir2A): 1.55

Form field composite z-score for item COC(=O)C1=CC(CCCO)=CC(c2cccs2)N(C)C=C1C(=O)OC (stereo unspecified) on Plasmodium falciparum Sir2 (PF13_0152, Sir2A): 1.52

Form field composite z-score for item CCCC=C(CCC)[C@@H](NP(=O)(c1ccccc1)c1ccccc1)c1ccc(-c2ccccc2)cc1 on Plasmodium falciparum Sir2 (PF13_0152, Sir2A): 0.517
